Origin of values: PubChem BioAssay AID652136

Assay: SF-1 AF-2 mutant transactivation artefacts – cell-based, luminescence, counter-screen for DAX1 inhibitor project (AID 652136);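 further: 0% = DAX-1 transfected cells with DMSO and 100% = cells without DAX-1 with DMSO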
Conditions: HEK293 StAR-luciferase, SF-1 AF2 mutant, at 6.8 µM, active compounds read high
The whole screen tested about 2,400 compounds, of which about 1,900 (79%) were called active. So high a share suggests a set chosen from earlier hits. Not all results are given here.
VALUE_KIND: inhibition (%)
Numbers only; they are read as %.

Past entries and their recorded results:
1. O=C(Nc1ccc(Cl)c(Cl)c1)c1ccccc1NC(=O)C1CC=CCC1C(=O)O (stereo unspecified) = 4.5
2. COc1cc(C2c3cc4c(cc3C(O)C3COC(=O)C23)OCO4)cc(OC)c1OC (stereo unspecified) = -5.65
3. Cc1nn(-c2ccc([N+](=O)[O-])cc2)c(N)c1-c1ccccc1 = 6.97
4. CC1CCN(CCCNC(=O)CN2C(=O)CSc3ccc(S(=O)(=O)N4CCCCC4)cc32)CC1 = 1.65

Reported inhibition for CC(C)(C)c1csc(NC2=NS(=O)(=O)c3ccccc32)n1 : what is it?
7.77

Using the record for CCc1ccc2oc(-c3ccc(N)cc3)nc2c1 , report its inhibition.
4.11
